Target: T1, RSV F subtype A, furin-cleaved ectodomain stabilized in the prefusion conformation (DS-Cav1) (Respiratory syncytial virus subtype A, UniProt P03420 26-524)
T1 construct: extracellular domain; Trimeric soluble antigen; also called Prefusion subtype A
Experiment: BLI, IgG on AHQ sensor, 100 nM antigen
value_type: pKd
As a rule, pKd stands for the negative log10 of the concentration, concentration in M.

[ask] If you can, please state the reported pKd value of ADI-18975 (antibody, V domains shown, full-length IgG from yeast; also called Antibody Number 323; Ab # 323) VH: QVQLVQSGAEVKKPGASVKVSCKASGYTFVHYGISWVRQAPGQGLEWMGWISAYNGNTNSALKFQDRVTMTTDPSTSTAYMELRSLRSDDTAIYYCARDSGCCSGSTSDVWGKGTTVTVSS VL: DIVMTQSPLSSPVTLGQPASISCRSSQSLVHSDGNTYLSWLHQRPGQPPRLLIYKISHRFSGVPDRFTGSGAGTDFTLKISRVEAEDVGVYYCMQATEFPPMYTFGQGTKVEIK .
[reply] 9.57

[ask] // pKd lookup, key: ADI-18883 (antibody, V domains shown, full-length IgG from yeast) VH: QVQLVQSGPEVKKPGSSVTVSCKASGGTFSNYGIAWVRQAPGQGLEWMGSTIPILGTASYRQSLKDRVTITADASTTTVYMEMTRLRTEDTAVYFCARVPESLVASNAYAVWGQGTVVTVSS VL: DIQMTQSPSSVSASVGDRVTITCRASQDISTWLAWYQQRPGKAPKLLIYTASSLQSGVPSRFSGSGSGTEFTLTISSLQPEDFATYYCQQGTSFPFTFGPGTKLEIK
[reply] 9.37
